Molecular target: T1, human CD25 (NP_000408.1) (Met 1-Cys 213) C-terminally fused with 6-histidine tag (human, UniProt P01589 22-213)
T1 construct: range 1-213; Expressed in CHO-K1 cells; also called human CD25-his
T1 sequence: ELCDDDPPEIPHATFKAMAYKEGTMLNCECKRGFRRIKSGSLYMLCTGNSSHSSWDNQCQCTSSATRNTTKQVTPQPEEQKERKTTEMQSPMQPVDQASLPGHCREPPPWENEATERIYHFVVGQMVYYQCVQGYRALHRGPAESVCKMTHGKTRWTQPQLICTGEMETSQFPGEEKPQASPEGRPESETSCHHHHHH
Assay: SPR (BIAcore X100), human CD25-his captured by anti-histidine antibody, antibody as analyte, 1:1 model
# maps each entry to its koff
Give just the numeric value; s⁻¹ need not be written.

Given item humanized antibody 2047-10H2L2 (antibody, human IgG1, kappa, V domains shown) VH: EVQLVQSGAEVKKPGATVKISCKGSGYTFTDYAMHWVQQAPGKGLEWMGVISTYSGNTNYNQKFKGRVTITVDKSTSTAYMELSSLRSEDTAVYYCARSYGNYPFDYWGQGTLVTVSS VL: DIQMTQSPSSLSASVGDRVTITCKASQDITSYLSWFQQKPGKAPKTLIYRANRLVDGVPSRFSGSGSGQDYTLTISSLQPEDMATYYCLQYDEFPYTFGQGTKLEIKR , the value recorded as its koff is 0.00205

Documented koff of humanized antibody 2046-36H1L1 (antibody, human IgG1, kappa, V domains shown) VH: EIQLVQSGSELKKPGASVKVSCKASGYTFTTAGMQWVRQAPGQGLEWMGWINTHSGVPKYAEDFKGRFVFSLDTSVSTAYLQISSLKAEDTAVYYCASDYAFGYWGQGTLVTVSS VL: DVVMTQSPLSLPVTLGQPASISCKSSQSLLYSNGKTYLYWLQQRPGQSPRRLIYLVSKLDSGVPDRFSGSGSGTDFTLKISRVEAEDLGVYYCVQGTHFPYTFGQGTKLEIKR : 0.00394

More entries:
Noted for humanized antibody 2046-111H1L1-m2 (antibody, human IgG1, kappa, V domains shown) VH: EVQLQESGPGLVKPSQTLSLTCTVSGHSITSDYAWNWIRQPPGKGLEWIGYISYSGSTIYNPSLKSRVTISRDTSKNQFSLKLSSVTAADTAVYYCARWLLQNYYAMDYWGQGTLVTVSS VL: EIVLTQSPGTLSLSPGERATLSCRSSQSLVHSNGNTYLHWYQQKPGQAPRLLIYKVSNRFSGIPDRFSGSGSGTDFTLTISRLEPEDFAVYYCSQSTHVPLTFGQGTKLEIKR : its koff reads 0.00414

koff in this record for humanized antibody 2047-3H1L2 (antibody, human IgG1, kappa, V domains shown) VH: EVQLVQSGAEVKKPGATVKISCKTSGYTFTDYVISWVQQAPGKGLEWMGEIYPGSGSTYYNEKFKGRVTITADISTNTAYMELSSLRSEDTAVYYCASINFDYWGQGTLVTVSS VL: EIVMTQSPATLSLSPGERATLSCRASQSISDYLHWYQQKPGQAPRLLIKYASQSISGIPARFSGSGSGSDFTLTISSLQPEDVAVYYCQSGHSFPYTFGQGTKLEIKR : 0.000498
